# Tested on: Rattus norvegicus
# testSummary: Acute gastric toxicity (single oral dose) in male fasted rats
# Type: organism-based, Stomach
# details: in vivo
# Gastric toxicity per entry
Number only, no unit.

See these solved cases before continuing.
> print(dat)
                                   compound  experimentalvalue
1  Cc1ccc(C(=O)c2cc(Cl)cc(CC(=O)[O-])c2N)cc1.[Na+]                0.7
2  Nc1c(CC(=O)[O-])cccc1C(=O)c1ccc(Cl)cc1Cl.[Na+]                  1

// query Print Rattus norvegicus Gastric toxicity for "Nc1c(CC(=O)[O-])cc(Cl)cc1C(=O)c1ccc(Br)cc1.[Na+]" .
// result 1.5

// query Print Rattus norvegicus Gastric toxicity for Cc1cc(CC(=O)O)n(C)c1C(=O)c1ccc(Cl)cc1 [ZOMEPIRAC] .
// result 0.25

// query Print Rattus norvegicus Gastric toxicity for "Nc1c(CC(=O)[O-])cc(F)cc1C(=O)c1ccc(Br)cc1.[Na+]" .
// result 1.7

// query Print Rattus norvegicus Gastric toxicity for "Nc1c(CC(=O)[O-])cccc1C(=O)c1ccc(Br)cc1Cl.[Na+]" .
// result 5.6

###

# Test system: Rattus norvegicus
# testSummary: Percent change in average volume of pleural fluid at a dose 4 mg/kg of indomethacin and 5-h response is evaluated by Evans blue-carrageenan induced pleural effusion assay
# Assay type: functional
# Change per entry
Output spec: scalar in %, unitless text.

See these solved cases before continuing.
> print(dat)
                                   compound        studysystem  uom  experimentalvalue
1  Cc1cc(CC(=O)[O-])c(N)c(C(=O)c2ccc(F)cc2)c1.[Na+]  Rattus norvegicus    %                -42
2  Cc1ccc(C(=O)c2cc(C)cc(CC(=O)[O-])c2N)cc1.[Na+]  Rattus norvegicus    %                -42
3  Nc1c(CC(=O)[O-])cc(Br)cc1C(=O)c1ccc(Cl)cc1.[Na+]  Rattus norvegicus    %                -40

// query Give a short answer stating reported Change for "Nc1c(CC(=O)[O-])cc(F)cc1C(=O)c1ccccc1.[Na+]" .
// result -20

// query Give a short answer stating reported Change for "Nc1c(CC(=O)[O-])cc(Cl)cc1C(=O)c1ccc(Br)cc1Cl.[Na+]" .
// result -36

// query Give a short answer stating reported Change for "Cc1cc(CC(=O)[O-])c(N)c(C(=O)c2ccccc2)c1.[Na+]" .
// result -25

// query Give a short answer stating reported Change for "Nc1c(CC(=O)[O-])cc(Cl)cc1C(=O)c1ccc(Br)cc1.[Na+]" .
// result -40

// query Give a short answer stating reported Change for "Cc1ccc(CC(=O)[O-])c(N)c1C(=O)c1ccccc1.[Na+]" .
// result -1

// query Give a short answer stating reported Change for "Nc1c(CC(=O)[O-])cc(F)cc1C(=O)c1ccc(F)cc1.[Na+]" .
// result -40

// query Give a short answer stating reported Change for "Cc1ccc(C(=O)c2cc(Cl)cc(CC(=O)[O-])c2N)cc1.[Na+]" .
// result -40

// query Give a short answer stating reported Change for "Nc1c(CC(=O)[O-])cccc1C(=O)c1ccc(I)cc1.[Na+]" .
// result -32

// query Give a short answer stating reported Change for "Nc1c(CC(=O)[O-])cc(Cl)cc1C(=O)c1ccc(O)cc1.[Na+]" .
// result -40

###

# Test system: Mus musculus
# testSummary: Oral analgesic activity was determined in mice by the acetylcholine-induced abdominal constriction assay upon ip administration of acetylcholine bromide 5 hours following oral administration
# Format: functional
# details: Abdomen
# log10 ED50 per entry
Reminder: these figures are log10 of reported ED50, in mg/kg before transformation.

> print(dat)
                                   compound   studysystem  measuredattribute  experimentalvalue
1  Nc1c(CC(=O)[O-])cccc1C(=O)c1ccc(I)cc1.[Na+]  Mus musculus         log10 ED50              -0.74
2  Nc1c(CC(=O)[O-])cc(Cl)cc1C(=O)c1ccc(Cl)cc1.[Na+]  Mus musculus         log10 ED50              -0.51

// query Give a short answer stating reported log10 ED50 for "Nc1c(CC(=O)[O-])cc(F)cc1C(=O)c1ccc(Cl)cc1Cl.[Na+]" .
// result -0.19

// query Give a short answer stating reported log10 ED50 for "CSc1ccc(C(=O)c2cc(Cl)cc(CC(=O)[O-])c2N)cc1.[Na+]" .
// result 0.28

// query Give a short answer stating reported log10 ED50 for "Nc1c(CC(=O)[O-])cc(F)cc1C(=O)c1ccc(Br)cc1.[Na+]" .
// result -0.54

###

# studySystem: Cyclooxygenase (Bos taurus, UniProt O62664+O62698)
# Sequence (O62664 whole entry): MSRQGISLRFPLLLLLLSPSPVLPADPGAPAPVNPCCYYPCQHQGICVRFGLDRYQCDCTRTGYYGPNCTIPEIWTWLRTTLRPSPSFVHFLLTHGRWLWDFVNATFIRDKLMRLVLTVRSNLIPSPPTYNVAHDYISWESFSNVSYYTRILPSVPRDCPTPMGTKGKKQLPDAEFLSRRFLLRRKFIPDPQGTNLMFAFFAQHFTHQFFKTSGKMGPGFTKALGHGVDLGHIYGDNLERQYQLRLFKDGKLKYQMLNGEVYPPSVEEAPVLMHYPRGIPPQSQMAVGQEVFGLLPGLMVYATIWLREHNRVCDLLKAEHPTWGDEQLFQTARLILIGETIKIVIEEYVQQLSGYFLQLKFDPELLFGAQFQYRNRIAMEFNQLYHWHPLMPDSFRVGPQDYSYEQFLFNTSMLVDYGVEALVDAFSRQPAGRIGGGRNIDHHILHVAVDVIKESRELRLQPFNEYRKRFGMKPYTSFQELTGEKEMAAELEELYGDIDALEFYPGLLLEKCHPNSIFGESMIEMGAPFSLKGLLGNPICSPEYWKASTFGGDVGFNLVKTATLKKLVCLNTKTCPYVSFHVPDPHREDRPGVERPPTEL
# Sequence (O62698 whole entry): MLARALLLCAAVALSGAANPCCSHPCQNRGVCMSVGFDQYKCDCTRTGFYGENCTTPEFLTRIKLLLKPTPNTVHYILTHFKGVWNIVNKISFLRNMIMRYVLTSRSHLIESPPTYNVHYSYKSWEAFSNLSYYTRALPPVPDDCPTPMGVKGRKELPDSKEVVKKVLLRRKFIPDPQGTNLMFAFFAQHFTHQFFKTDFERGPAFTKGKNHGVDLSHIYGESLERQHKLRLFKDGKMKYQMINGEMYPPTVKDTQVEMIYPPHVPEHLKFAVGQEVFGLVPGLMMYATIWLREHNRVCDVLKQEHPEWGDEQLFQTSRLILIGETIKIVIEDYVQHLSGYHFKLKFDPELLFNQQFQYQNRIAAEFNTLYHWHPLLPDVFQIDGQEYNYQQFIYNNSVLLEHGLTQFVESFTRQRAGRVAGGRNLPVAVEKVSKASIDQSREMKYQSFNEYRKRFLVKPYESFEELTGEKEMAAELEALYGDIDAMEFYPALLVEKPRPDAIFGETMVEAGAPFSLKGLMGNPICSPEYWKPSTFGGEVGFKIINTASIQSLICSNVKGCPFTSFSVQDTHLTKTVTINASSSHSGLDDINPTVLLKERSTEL
# IC50 per entry
Report field: quantity (unit follows the number).

// query Give a short answer stating reported IC50 for "CSc1ccc(C(=O)c2cc(F)cc(CC(=O)[O-])c2N)cc1.[Na+]" .
// result 8 nM

// query Give a short answer stating reported IC50 for "Nc1c(CC(=O)[O-])cccc1C(=O)c1ccccc1Cl.[Na+]" .
// result 300 nM

// query Give a short answer stating reported IC50 for "Cc1ccc(C(=O)c2cc(C)cc(CC(=O)[O-])c2N)cc1.[Na+]" .
// result 30000 nM

// query Give a short answer stating reported IC50 for "COc1ccc(C(=O)c2cccc(CC(=O)[O-])c2N)cc1.[Na+]" .
// result 68000 nM

// query Give a short answer stating reported IC50 for "COc1cc(CC(=O)[O-])c(N)c(C(=O)c2ccccc2)c1.[Na+]" .
// result 5400 nM

// query Give a short answer stating reported IC50 for "Nc1c(CC(=O)[O-])cc(F)cc1C(=O)c1ccc(Cl)cc1.[Na+]" .
// result 100 nM

###

# Test system: Rattus norvegicus
# testSummary: Percent change in average volume of pleural fluid at a dose 4 mg/kg of indomethacin and 5-h response is evaluated by Evans blue-carrageenan induced pleural effusion assay
# Format: functional
# Change per entry
Output spec: scalar in %, unitless text.

> print(dat)
                                   molecule  measuredattribute  uom  experimentalvalue
1  Cc1cc(CC(=O)[O-])c(N)c(C(=O)c2ccc(Cl)cc2Cl)c1.[Na+]             Change    %                -45

// query Give a short answer stating reported Change for "CSc1ccc(C(=O)c2cc(Cl)cc(CC(=O)[O-])c2N)cc1.[Na+]" .
// result -40

// query Give a short answer stating reported Change for "Nc1c(CC(=O)[O-])cc(Cl)cc1C(=O)c1ccc(Cl)cc1.[Na+]" .
// result -32
